target: mPTPA (Mycobacterium tuberculosis); conditions: read-out: Biochemical potency against target (IC50, nM) mPTPA; pH 7
Sequence (P9WIA1 whole entry): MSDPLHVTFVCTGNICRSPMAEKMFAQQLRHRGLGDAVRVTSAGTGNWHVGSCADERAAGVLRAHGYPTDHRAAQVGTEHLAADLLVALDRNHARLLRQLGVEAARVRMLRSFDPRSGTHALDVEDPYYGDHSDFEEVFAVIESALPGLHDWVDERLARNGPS
readout.label: IC50 (nM)
Form entry: value (nM) — number only.

Q: Given Cc1c(Br)cc(NC(=O)CS(=O)(=O)O)cc1Br , report its IC50 on mPTPA (Mycobacterium tuberculosis).
Ans: 160

---

target: mPTPB (Mycobacterium tuberculosis, UniProt I6WXK4); conditions: read-out: Biochemical potency against target (IC50, nM) mPTPB; pH 7
Sequence (I6WXK4 whole entry, looked up): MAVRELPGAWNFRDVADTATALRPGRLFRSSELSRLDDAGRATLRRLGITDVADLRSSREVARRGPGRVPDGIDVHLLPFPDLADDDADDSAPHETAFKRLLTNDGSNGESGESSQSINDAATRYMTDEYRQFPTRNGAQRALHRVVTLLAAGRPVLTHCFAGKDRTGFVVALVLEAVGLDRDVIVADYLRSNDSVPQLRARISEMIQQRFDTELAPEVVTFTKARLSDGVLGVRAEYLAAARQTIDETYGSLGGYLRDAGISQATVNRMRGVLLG
readout.label: IC50

Q: For Cc1c(Br)cc(NC(=O)CS(=O)(=O)O)cc1Br [Compound L335-M34] , write its IC50.
Ans: > 3200 nM

---

target: mPTPA (Mycobacterium tuberculosis)
readout.label: Ki (nM)
Form entry: value (nM) — number only.

Q: For Cc1c(Br)cc(NC(=O)CS(=O)(=O)O)cc1Br , write its Ki.
Ans: 56
